# System Name: PDE (IV)
# Assay Procedure: Inhibition of phosphodiesterase PDE IV (cAMP-specific), boronate column method
# Experimental Context: cAMP as substrate, 37° C., pH 7.5; read-out: Inhibition of PDE expressed as IC50, PDE (IV)
pIC50: −log10 of the molar value.
Measurement Kind: pIC50

Compound	Measured Value
COc1ccc(S(=O)(=O)n2c(N)nc3c2c(=O)n(CC2CC2)c(=O)n3CC2CC2)cc1 [Example 2]	5.52
COc1ccc(S(=O)(=O)n2c(N)nc3c2c(=O)n(CC2CC2)c(=O)n3CC2CC2)cc1OC [Example 3]	5.40

---

pIC50: −log10 of the molar value.
As an illustration, consider measured pIC50 for compounds on UniProt A0A287B475.
Measurement Kind: pIC50

Nc1nc2c(c(=O)n(CC3CC3)c(=O)n2CC2CC2)n1S(=O)(=O)c1ccccc1 5.40

a. COc1ccc(S(=O)(=O)n2c(N)nc3c2c(=O)n(CC2CC2)c(=O)n3CC2CC2)cc1OC
b. COc1ccc(S(=O)(=O)n2c(N)nc3c2c(=O)n(CC2CC2)c(=O)n3CC2CC2)cc1
Which value of pIC50 is numerically greater: that of a or that of b ? Respond using the label that marks the chosen record.
a
(a: 6.70, b: 6.40)

---

# System Name: PDE (IV)
# Assay Procedure: Inhibition of phosphodiesterase PDE IV (cAMP-specific), boronate column method
# Experimental Context: cAMP as substrate, 37° C., pH 7.5; read-out: Inhibition of PDE expressed as IC50, PDE (IV)
pIC50: −log10 of the molar value.
Measurement Kind: pIC50

Molecule	Measurement Kind	Measured Value
Nc1nc2c(c(=O)n(CC3CC3)c(=O)n2CC2CC2)n1S(=O)(=O)c1ccc(Cl)cc1 [Example 9]	pIC50	5.40

P. Nc1nc2c(c(=O)n(CC3CC3)c(=O)n2CC2CC2)n1S(=O)(=O)c1ccccc1 [Example 1]
Q. COc1ccc(S(=O)(=O)n2c(Cl)nc3c2c(=O)n(CC2CC2)c(=O)n3CC2CC2)cc1 [Example 7]
I'm curious, which of these has a smaller pIC50 number: P or Q ? Kindly state the label of the option you pick.
Q
(Q: 4.96, P: 5.52)
